- measurementDescription: Cmax value was evaluated in mice by intravenous administration of 6.8 umol/kg dose
- Assay type: ADME, organism-based
- Design: dose 6.8 umol/kg, route intravenous
- assaySetup: mouse, in vivo
measure: Cmax (nM)
Numbers only, in nM.

Data request: Query (compound): `CCCC(=O)C1(c2ccccc2)CCN(C(=O)[C@@H](Cc2ccc(OC)cc2)NC(=O)[C@@H](N)Cc2cncn2C)CC1` ; field requested: Cmax
Data returned: 2200

----------
- systemUnderTest: Melanocortin receptor 4 (Homo sapiens, UniProt P32245)
- Sequence (P32245 whole entry): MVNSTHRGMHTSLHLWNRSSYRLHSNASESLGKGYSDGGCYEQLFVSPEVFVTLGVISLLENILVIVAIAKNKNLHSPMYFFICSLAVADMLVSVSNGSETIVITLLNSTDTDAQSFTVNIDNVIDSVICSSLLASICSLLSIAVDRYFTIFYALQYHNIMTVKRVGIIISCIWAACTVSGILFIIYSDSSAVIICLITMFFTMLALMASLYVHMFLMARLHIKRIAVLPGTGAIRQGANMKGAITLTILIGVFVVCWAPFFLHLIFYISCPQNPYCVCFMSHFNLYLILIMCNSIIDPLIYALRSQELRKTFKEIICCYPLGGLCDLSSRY
- measurementDescription: In vitro intrinsic activity against human Melanocortin 4 receptor (MC4R)
measure: Intrinsic activity (%)
Numbers only, in %.

A selection of reference data follows.
> print(dat)
                      structuresmilesstring             measure  measvalue
1  COc1ccc(C[C@@H](NC(=O)[C@H]2Cc3ccccc3CN2)C(=O)N2CCC3(CC2)CN(S(C)(=O)=O)c2ccccc23)cc1  Intrinsic activity         95
2  CCCC(=O)C1(c2ccccc2)CCN(C(=O)[C@@H](Cc2ccc(OC)cc2)NC(=O)[C@@H](N)Cc2cncn2C)CC1  Intrinsic activity         39

List reported Intrinsic activity for each of these compounds:
1. CCCC(=O)C1(c2ccccc2)CCN(C(=O)[C@@H](Cc2ccc(OC)cc2)NC(=O)[C@H](O)Cc2c[nH]cn2)CC1
2. CCCC(=O)C1(c2ccccc2)CCN(C(=O)[C@@H](Cc2ccc(OC)cc2)NC(=O)[C@@H](Cc2c[nH]cn2)NC(=O)c2ccccc2)CC1
3. CCCC(=O)C1(c2ccccc2)CCN(C(=O)[C@@H](Cc2ccc(OC)cc2)NC(=O)CCc2c[nH]cn2)CC1
4. CCCC(=O)C1(c2ccccc2)CCN(C(=O)[C@@H](Cc2ccc(OC)cc2)NC(=O)[C@@H](Cc2c[nH]cn2)NC(C)=O)CC1
5. CCCC(=O)C1(c2ccccc2)CCN(C(=O)[C@@H](Cc2ccc(OC)cc2)NC(=O)[C@H](N)Cc2c[nH]cn2)CC1

Data returned:
[95, 95, 92, 96, 103]

----------
- systemUnderTest: Melanocortin receptor 4 (Homo sapiens, UniProt P32245)
- measurementDescription: In vitro effective concentration towards human Melanocortin 4 receptor (MC4R) was determined by a SPA-based cAMP assay in melanoma cells
I'd be grateful if you could share measured EC50 for these entries.

> print(dat)
                      structuresmilesstring  measure  measvalue
1  CCCC(=O)C1(c2ccccc2)CCN(C(=O)[C@@H](Cc2ccc(OC)cc2)NC(=O)[C@H](O)Cc2cnc[nH]2)CC1     EC50      77 nM

List reported EC50 for each of these molecules:
1. CCCC(=O)C1(c2ccccc2)CCN(C(=O)[C@@H](Cc2ccc(OC)cc2)NC(=O)CCc2cnc[nH]2)CC1
2. CCCC(=O)C1(c2ccccc2)CCN(C(=O)[C@@H](Cc2ccc(OC)cc2)NC(=O)[C@H](N)Cc2cnc[nH]2)CC1
3. CCCC(=O)C1(c2ccccc2)CCN(C(=O)[C@@H](Cc2ccc(OC)cc2)NC(=O)[C@@H](Cc2cnc[nH]2)NC(=O)c2ccccc2)CC1
4. COc1ccc(C[C@@H](NC(=O)[C@H]2Cc3ccccc3CN2)C(=O)N2CCC3(CC2)CN(S(C)(=O)=O)c2ccccc23)cc1
5. CCCC(=O)C1(c2ccccc2)CCN(C(=O)[C@@H](Cc2ccc(OC)cc2)NC(=O)[C@@H](N)Cc2cncn2C)CC1
6. CCCC(=O)C1(c2ccccc2)CCN(C(=O)[C@@H](Cc2ccc(OC)cc2)NC(=O)[C@@H](Cc2c[nH]cn2)NC(C)=O)CC1

Data returned:
840 nM
630 nM
2.9 nM
40 nM
2600 nM
23 nM

----------
- systemUnderTest: Melanocyte-stimulating hormone receptor (Homo sapiens)
- measurementDescription: In vitro intrinsic activity against human Melanocortin 1 receptor (MC1R)
- Sequence (Q01726 whole entry, looked up): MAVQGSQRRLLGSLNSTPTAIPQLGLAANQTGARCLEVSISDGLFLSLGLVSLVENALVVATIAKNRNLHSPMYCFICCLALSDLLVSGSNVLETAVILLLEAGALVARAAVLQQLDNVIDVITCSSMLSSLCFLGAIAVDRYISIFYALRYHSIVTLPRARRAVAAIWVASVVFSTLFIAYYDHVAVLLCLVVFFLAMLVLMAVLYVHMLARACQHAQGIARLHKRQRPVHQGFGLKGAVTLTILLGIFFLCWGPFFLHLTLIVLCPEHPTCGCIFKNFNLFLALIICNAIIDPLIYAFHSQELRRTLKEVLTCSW
measure: Intrinsic activity (%)
Answers are plain numbers, in %.

A selection of reference data follows.
> print(dat)
                      structuresmilesstring             measure  measvalue
1  CCCC(=O)C1(c2ccccc2)CCN(C(=O)[C@@H](Cc2ccc(OC)cc2)NC(=O)CCc2c[nH]cn2)CC1  Intrinsic activity         97
2  CCCC(=O)C1(c2ccccc2)CCN(C(=O)[C@@H](Cc2ccc(OC)cc2)NC(=O)[C@H](N)Cc2c[nH]cn2)CC1  Intrinsic activity         93
3  CCCC(=O)C1(c2ccccc2)CCN(C(=O)[C@@H](Cc2ccc(OC)cc2)NC(=O)[C@@H](N)Cc2c[nH]cn2)CC1  Intrinsic activity         67

List reported Intrinsic activity for each of these compounds:
1. CCCC(=O)C1(c2ccccc2)CCN(C(=O)[C@@H](Cc2ccc(OC)cc2)NC(=O)[C@@H](N)Cc2cncn2C)CC1
2. CCCC(=O)C1(c2ccccc2)CCN(C(=O)[C@@H](Cc2ccc(OC)cc2)NC(=O)[C@@H](Cc2c[nH]cn2)NC(C)=O)CC1
3. CCCC(=O)C1(c2ccccc2)CCN(C(=O)[C@@H](Cc2ccc(OC)cc2)NC(=O)[C@@H](Cc2c[nH]cn2)NC(=O)c2ccccc2)CC1
4. CCCC(=O)C1(c2ccccc2)CCN(C(=O)[C@@H](Cc2ccc(OC)cc2)NC(=O)[C@H](N)Cc2cncn2C)CC1
5. CCCC(=O)C1(c2ccccc2)CCN(C(=O)[C@@H](Cc2ccc(OC)cc2)NC(=O)[C@H](O)Cc2c[nH]cn2)CC1
6. COc1ccc(C[C@@H](NC(=O)[C@H]2Cc3ccccc3CN2)C(=O)N2CCC3(CC2)CN(S(C)(=O)=O)c2ccccc23)cc1

Data returned:
[92, 96, 98, 34, 90, 80]

----------
I'd be grateful if you could share measured EC50 for these entries.
- systemUnderTest: Melanocortin receptor 3 (Homo sapiens)
- measurementDescription: In vitro effective concentration towards human Melanocortin 3 receptor (MC3R) was determined by a SPA-based cAMP assay in melanoma cells
- Type: cell-based
Numbers only, in nM.

> print(dat)
                      structuresmilesstring  measure  measvalue
1  CCCC(=O)C1(c2ccccc2)CCN(C(=O)[C@@H](Cc2ccc(OC)cc2)NC(=O)CCc2cnc[nH]2)CC1     EC50       7000
2  CCCC(=O)C1(c2ccccc2)CCN(C(=O)[C@@H](Cc2ccc(OC)cc2)NC(=O)[C@@H](Cc2c[nH]cn2)NC(C)=O)CC1     EC50       2200
3  CCCC(=O)C1(c2ccccc2)CCN(C(=O)[C@@H](Cc2ccc(OC)cc2)NC(=O)[C@H](N)Cc2cnc[nH]2)CC1     EC50       1700

# input for lookup
Data request: Query (molecule): `CCCC(=O)C1(c2ccccc2)CCN(C(=O)[C@@H](Cc2ccc(OC)cc2)NC(=O)[C@@H](Cc2cnc[nH]2)NC(=O)c2ccccc2)CC1` ; field requested: EC50
Data returned: 250

----------
- systemUnderTest: Melanocortin receptor 3 (Homo sapiens, UniProt P41968)
- Sequence (P41968 whole entry): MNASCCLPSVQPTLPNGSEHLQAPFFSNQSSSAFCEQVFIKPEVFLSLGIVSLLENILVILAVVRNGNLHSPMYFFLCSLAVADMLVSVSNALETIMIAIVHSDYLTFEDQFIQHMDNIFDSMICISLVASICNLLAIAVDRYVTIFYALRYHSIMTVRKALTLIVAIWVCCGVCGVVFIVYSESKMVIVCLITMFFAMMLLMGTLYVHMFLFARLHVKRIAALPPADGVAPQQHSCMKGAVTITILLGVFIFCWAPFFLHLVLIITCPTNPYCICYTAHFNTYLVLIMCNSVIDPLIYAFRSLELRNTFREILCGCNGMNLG
- measurementDescription: In vitro effective concentration towards human Melanocortin-3 receptor (MC3R) was determined by a SPA-based cAMP assay in melanoma cells
- Type: cell-based
measure: pEC50
Numbers only, as −log10 of the molar value.

Data request: Query (compound): `CCCC(=O)C1(c2ccccc2)CCN(C(=O)[C@@H](Cc2ccc(OC)cc2)NC(=O)[C@H](O)Cc2cnc[nH]2)CC1` ; field requested: pEC50
Data returned: 5.41

----------
- systemUnderTest: Melanocyte-stimulating hormone receptor (Homo sapiens, UniProt Q01726)
- measurementDescription: In vitro effective concentration towards human Melanocortin 1 receptor (MC1R) in SPA-based cAMP assay in melanoma cells
- Sequence (Q01726 whole entry): as the sequence (Q01726 whole entry, looked up) above
measure: pEC50
Numbers only, as −log10 of the molar value.

> print(dat)
                      structuresmilesstring  measure  measvalue
1  CCCC(=O)C1(c2ccccc2)CCN(C(=O)[C@@H](Cc2ccc(OC)cc2)NC(=O)[C@@H](Cc2c[nH]cn2)NC(C)=O)CC1    pEC50       9.46
2  COc1ccc(C[C@@H](NC(=O)[C@H]2Cc3ccccc3CN2)C(=O)N2CCC3(CC2)CN(S(C)(=O)=O)c2ccccc23)cc1    pEC50       6.66
3  CCCC(=O)C1(c2ccccc2)CCN(C(=O)[C@@H](Cc2ccc(OC)cc2)NC(=O)[C@@H](Cc2cnc[nH]2)NC(=O)c2ccccc2)CC1    pEC50       9.72
4  CCCC(=O)C1(c2ccccc2)CCN(C(=O)[C@@H](Cc2ccc(OC)cc2)NC(=O)[C@@H](N)Cc2cncn2C)CC1    pEC50       7.55

Data request: Query (molecule): `CCCC(=O)C1(c2ccccc2)CCN(C(=O)[C@@H](Cc2ccc(OC)cc2)NC(=O)[C@H](O)Cc2cnc[nH]2)CC1` ; field requested: pEC50
Data returned: 8.42
